Please provide measured pIC50 for the entries that follow.
Tested on: human lung cancer strain NCI-H441
Assay type: cell-based
Experimental: A test compound was dispensed into a U-bottom 384-well plate as 40 nL serially diluted dimethyl sulfoxide solutions using a liquid handler Echo (LABCYTE). […] This cell suspension was dispensed in an amount of 40 µL per well into a plate containing the test compound, and cultured at 37°C in a 5% carbon dioxide gas incubator. Four days later, 20 µL of CellTiter-Glo (registered trademark) (Promega) was added to each well and […] was measured. […]
Where a SMILES comes first, the peptide text is derived from it. Bridges are numbered along the chain shown (N, C = ends). [ ]: non-standard residue; d: D form. The star is where a group is joined. hPhe(3,5-F2-4-CF3) = N[C@@H](CCc1cc(F)c(C(F)(F)F)c(F)c1)C(=O)O; hPhe(3-Cl-4-CF3) = N[C@@H](CCc1ccc(C(F)(F)F)c(Cl)c1)C(=O)O; NPrPhe(4-CF3) = CCCN[C@@H](Cc1ccc(C(F)(F)F)cc1)C(=O)O; NMeGly(cPent) = CN[C@H](C(=O)O)C1CCCC1; Pro(4S-Me) = C[C@@H]1CN[C@H](C(=O)O)C1; αMeI = CC[C@H](C)[C@](C)(N)C(=O)O; NMeD = CN[C@@H](CC(=O)O)C(=O)O; NMeL = CN[C@@H](CC(C)C)C(=O)O; Morpholide = C1CN(*)CCO1; Ac5c = NC1(C(=O)O)CCCC1; Aze = O=C(O)[C@@H]1CCN1; Sar = CNCC(=O)O
Kindly note that pIC50 refers to -log10 of the concentration in mol/L and answer with the value alone.

[in] Bench note: what pIC50 did CCO[C@@H]1C[C@H]2C(=O)N[C@@]3(C)CCCCCCC[C@@H](C(=O)N[C@@H]([C@@H](C)CC)C(=O)N(C)CC(=O)N(C)[C@H]4CCCCN(C4=O)[C@@H](Cc4ccc(C(F)(F)F)cc4)C(=O)N(C)CC(=O)N[C@@H](CCc4cc(F)c(C(F)(F)F)c(F)c4)C(=O)N2C1)N(C)C(=O)C[C@@H](C(=O)N1CCOCC1)N(C)C(=O)[C@H](C1CCCC1)N(C)C3=O show?
[out] 6.48

[in] Please give the measured pIC50 for this molecule: CCO[C@@H]1C[C@H]2C(=O)NC3(CCC3)C(=O)N(C)[C@@H](C3CCCC3)C(=O)N(C)[C@H](C(=O)N(C)C)CC(=O)N(C)[C@@H](CC(C)C)C(=O)N[C@@H]([C@@H](C)CC)C(=O)N3CC[C@H]3C(=O)N(C)[C@H]3CC(C)=C(C)CN(C3=O)[C@@H](Cc3ccc(C(F)(F)F)cc3)C(=O)N(C)CC(=O)N[C@@H](CCc3cc(F)c(C(F)(F)F)c(F)c3)C(=O)N2C1
[out] 6.93

[in] What value of pIC50 has been recorded for this entry: CC[C@H](C)[C@@H]1NC(=O)[C@H](CC2CC2)N(C)C(=O)C[C@@H](C(=O)N(C)C)N(C)C(=O)[C@H](C2CCCC2)N(C)C(=O)C2(CCC2)NC(=O)[C@@H]2C[C@@H](C(F)(F)F)CN2C(=O)[C@H](CCc2cc(F)c(C(F)(F)F)c(F)c2)NC(=O)CN(C)C(=O)[C@H](Cc2ccc(C(F)(F)F)cc2)N2CC/C=C\C[C@@H](C2=O)N(C)C(=O)CN(C)C1=O
[out] 7.99

[in] For CC[C@H](C)[C@@H]1NC(=O)[C@H](CC)N(C)C(=O)C[C@@H](C(=O)N(C)CC)N(C)C(=O)[C@H](C2CCCC2)N(C)C(=O)C2(CCC2)NC(=O)[C@@H]2C[C@@H](C)CN2C(=O)[C@H](CCc2ccc(C(F)(F)F)c(OC)c2)NC(=O)CN(C)C(=O)[C@H](Cc2ccc(C)cc2)N2CC/C=C\C[C@@H](C2=O)N(C)C(=O)CN(C)C1=O , what is its reported pIC50?
[out] 7.75

[in] For the molecule shown here, CCCN1C(=O)CN(C)C(=O)[C@@H]2CCN2C(=O)[C@H]([C@@H](C)CC)NC(=O)[C@H](CC(C)C)N(C)C(=O)C[C@@H](C(=O)N2CCOCC2)N(C)C(=O)[C@H](C2CCCC2)N(C)C(=O)[C@](C)([C@@H](C)CC)NC(=O)[C@@H]2CCCN2C(=O)[C@H](CCc2cc(F)c(C(F)(F)F)c(F)c2)NC(=O)CN(C)C(=O)[C@@H]1Cc1ccc(C(F)(F)F)cc1 [PP0774] ([NMeL]I[Aze][Sar][NPrPhe(4-CF3)][Sar][hPhe(3,5-F2-4-CF3)]P[αMeI][NMeGly(cPent)][NMeD]-Morpholide; lactam N-11) , give the reported pIC50.
[out] 6.32

[in] Given CCO[C@@H]1C[C@H]2C(=O)NC3(CCCC3)C(=O)N(C)[C@@H](C3CCCC3)C(=O)N(C)[C@H](C(=O)N(C)C)CC(=O)N(C)[C@@H](CC)C(=O)N[C@@H]([C@@H](C)CC)C(=O)N(C)CC(=O)N(C)[C@H]3CC(C)=CCN(C3=O)[C@@H](Cc3ccc(C(F)(F)F)cc3)C(=O)N(C)CC(=O)N[C@@H](CCc3cc(F)c(C(F)(F)F)c(F)c3)C(=O)N2C1 , state its recorded pIC50.
[out] 6.82

[in] Requested read-out: pIC50. Entry: CCCN1C(=O)[C@@H]2CCN2C(=O)CN(C)C(=O)[C@H]([C@@H](C)CC)NC(=O)[C@H](CC(C)C)N(C)C(=O)C[C@@H](C(=O)N2CCOCC2)N(C)C(=O)[C@H](C2CCCC2)N(C)C(=O)C2(CCCC2)NC(=O)[C@@H]2C[C@H](C)CN2C(=O)[C@H](CCc2ccc(C(F)(F)F)c(Cl)c2)NC(=O)CN(C)C(=O)[C@@H]1Cc1ccc(C(F)(F)F)cc1 [PP0457] ([NMeL]I[Sar][Aze][NPrPhe(4-CF3)][Sar][hPhe(3-Cl-4-CF3)][Pro(4S-Me)][Ac5c][NMeGly(cPent)][NMeD]-Morpholide; lactam N-11)
[out] 7.92

[in] // pIC50 lookup, key: CC[C@H](C)[C@@H]1NC(=O)[C@H](CC(C)C)N(C)C(=O)C[C@@H](C(=O)N(C)C)N(C)C(=O)[C@H](C2CCCC2)N(C)C(=O)C2(CCCC2)NC(=O)[C@@H]2C[C@@H](C)CN2C(=O)[C@H](CCc2cc(F)c(C(F)(F)F)c(F)c2)NC(=O)CN(C)C(=O)[C@H](Cc2ccc(C)cc2)N2CC/C=C\C[C@@H](C2=O)N(C)C(=O)CN(C)C1=O
[out] 7.98

[in] // pIC50 lookup, key: CC[C@H](C)[C@@H]1NC(=O)[C@H](CC(C)C)N(C)C(=O)C[C@@H](C)N(C)C(=O)[C@H](C2CCCC2)N(C)C(=O)C2(CCCC2)NC(=O)[C@@H]2CCCN2C(=O)[C@H](CCc2cc(F)c(C(F)(F)F)c(F)c2)NC(=O)CN(C)C(=O)[C@H](Cc2ccc(C(F)(F)F)cc2)N2CC/C=C\C[C@@H](C2=O)N(C)C(=O)CN(C)C1=O
[out] 7.08

[in] Looking for the measured pIC50 of CCO[C@@H]1C[C@H]2C(=O)NC3(CC(C)(C)C3)C(=O)N(C)[C@@H](C3CCCC3)C(=O)N(C)[C@H](C(=O)N(C)CC)CC(=O)N(C)[C@@H]([C@@H](C)OC)C(=O)N[C@@H]([C@@H](C)CC)C(=O)N3CCC[C@H]3C(=O)N(C)[C@H]3C/C=C\CCN(C3=O)[C@@H](Cc3ccc(C)cc3)C(=O)N(C)CC(=O)N[C@@H](CCc3ccc(C(F)(F)F)c(Cl)c3)C(=O)N2C1 , can you help?
[out] 7.38
